Hello, the source for this data is paper PMC9240925, in case you need it.

# METHOD_NOTES: pH-solubility study, shake flask method
# Assay type: physicochemical
# CONDITIONS: 25 °C, simulated gastric fluid, thermodynamic from solid; 25 ± 2 °C, water pH 1.2, unionized form, mean ± SD n = 3; read-out: Intrinsic solubility (S0)
RECORDED_METRIC: solubility at 24 h
Field: value (include unit after the number)

**Query** Name the recorded solubility at 24 h for COc1ccc2c(c1)c(CC(=O)O)c(C)n2C(=O)c1ccc(Cl)cc1 [Indomethacin] .
**Result** 0.95 µM

###

# METHOD_NOTES: pH-solubility study, shake flask method
# Type: physicochemical
# CONDITIONS: 30 ± 2 °C, water pH 1.2, unionized form, mean ± SD n = 3; read-out: Intrinsic solubility (S0)
RECORDED_METRIC: solubility at 24 h (µM)
Provide only the numeric value, understood in µM.

**Query** Give the measured solubility at 24 h of COc1ccc2c(c1)c(CC(=O)O)c(C)n2C(=O)c1ccc(Cl)cc1 [Indomethacin] .
**Result** 1.18

###

# METHOD_NOTES: Differential scanning calorimetry, glass transition
# Format: physicochemical
# CONDITIONS: calculated by Gordon–Taylor equation with crystalline densities
Listed compounds paired with reported Tg, Gordon–Taylor (glass transition temperature)
Respond with the bare value in °C.

Study these solved cases before continuing.
NCCCC[C@H](N)C(=O)O : 68.0
N[C@@H](Cc1c[nH]cn1)C(=O)O : 37.0
N=C(N)NCCC[C@H](N)C(=O)O : 55.0

**Query** Returns the measured Tg, Gordon–Taylor (glass transition temperature) for the input compound. Input: COc1ccc2c(c1)c(CC(=O)O)c(C)n2C(=O)c1ccc(Cl)cc1
**Result** 42.1

###

# METHOD_NOTES: pH-solubility study, shake flask method
# Type: physicochemical
# CONDITIONS: 25 ± 2 °C, water pH 6.3, ionized and unionized forms, mean ± SD n = 3; read-out: Aqueous solubility (S)
RECORDED_METRIC: solubility at 24 h

**Query** Dear colleague, I am looking for the recorded solubility at 24 h of the following compound: COc1ccc2c(c1)c(CC(=O)O)c(C)n2C(=O)c1ccc(Cl)cc1
**Result** 64.2 µM

###

# METHOD_NOTES: pH-solubility study, shake flask method
# Assay type: physicochemical
# CONDITIONS: 30 °C, aqueous buffer, thermodynamic from solid; 30 ± 2 °C, water pH 6.3, ionized and unionized forms, mean ± SD n = 3; read-out: Aqueous solubility (S)
RECORDED_METRIC: solubility at 24 h (µM)
Numbers only; they are read as µM.

**Query** Quick one: solubility at 24 h of COc1ccc2c(c1)c(CC(=O)O)c(C)n2C(=O)c1ccc(Cl)cc1 ?
**Result** 81.6
